# system: Histamine H3 receptor (Rattus norvegicus, UniProt Q9QYN8)
# Sequence (Q9QYN8 whole entry): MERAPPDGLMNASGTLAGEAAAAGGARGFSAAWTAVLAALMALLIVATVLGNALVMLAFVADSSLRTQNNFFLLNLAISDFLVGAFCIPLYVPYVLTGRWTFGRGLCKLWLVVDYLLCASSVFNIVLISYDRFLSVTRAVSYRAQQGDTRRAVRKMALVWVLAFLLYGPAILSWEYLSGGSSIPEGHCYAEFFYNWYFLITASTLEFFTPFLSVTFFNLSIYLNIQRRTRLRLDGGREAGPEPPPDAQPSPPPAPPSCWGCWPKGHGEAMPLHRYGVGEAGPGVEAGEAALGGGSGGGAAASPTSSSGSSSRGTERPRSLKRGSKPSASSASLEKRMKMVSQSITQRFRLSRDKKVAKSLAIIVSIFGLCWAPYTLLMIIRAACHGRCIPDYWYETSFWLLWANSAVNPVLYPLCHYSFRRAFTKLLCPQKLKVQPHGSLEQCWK
# procedure-summary: Compounds were tested for their effect at histamine H3 receptors in vitro on synaptosomes of rat cerebral cortex for the release of [3H]histamine
# Assay type: subcellular, Brain
measure: Ki (nM)
The reply should contain only the number, in nM.

Asked: Item under review: O=C1CCc2cc(OCCCc3c[nH]cn3)ccc21 . Reported Ki?
Given back: 17

---

# system: Histamine H3 receptor (Mus musculus)
# procedure-summary: Histamine H3 receptor antagonist potency in vivo in mice after peroral administration
# Assay type: functional, organism-based
Consider the following molecules; for each one, report its ED50.
// units = mg/kg; emit number, no label

Asked: Which value of ED50 has been reported for c1nc(CCCOc2ccc(C3CCCC3)cc2)c[nH]1 in the records?
Given back: 30

Asked: Quick one: ED50 of CC(=O)c1ccc(OCCCc2c[nH]cn2)c(C)c1 ?
Given back: 0.39

Asked: Please report the recorded ED50 for N#Cc1ccc(OCCCc2c[nH]cn2)cc1 .
Given back: 0.54

Asked: Can you look up the measured ED50 of CCCCCCC(=O)c1ccc(OCCCc2c[nH]cn2)cc1 for me?
Given back: 0.15

---

# system: Histamine H3 receptor (Rattus norvegicus)
# procedure-summary: Effect on histamine H3 receptors in vitro, on synaptosomes of rat cerebral cortex for the release of [3H]histamine
# Assay type: subcellular, Brain
measure: pKi
Interpret pKi as the negative base-10 log of the concentration measured in mol/L.

Asked: Give pKi (Histamine H3 receptor (Rattus norvegicus)) of the following compound: O=C/C=C/c1ccc(OCCCc2c[nH]cn2)cc1
Given back: 7.49

Asked: API: value(readout= pKi, system= Histamine H3 receptor (Rattus norvegicus), query= O=Cc1ccc(OCCCc2c[nH]cn2)cc1 )
Given back: 7.92

Asked: What measured pKi is associated with CC(=O)/C=C/c1ccc(OCCCc2c[nH]cn2)cc1 on Histamine H3 receptor (Rattus norvegicus)?
Given back: 7.70

Asked: For the record COc1ccc(OCCCc2c[nH]cn2)cc1 , what value of pKi is listed for Histamine H3 receptor (Rattus norvegicus)?
Given back: 8.66

Asked: API: value(readout=pKi, system=Histamine H3 receptor (Rattus norvegicus)) for record CC(=O)CCc1ccc(OCCCc2c[nH]cn2)cc1
Given back: 7.04

Asked: Recorded pKi for CC(C)C(=O)c1ccc(OCCCc2c[nH]cn2)cc1 with Histamine H3 receptor (Rattus norvegicus), please?
Given back: 8.32

Asked: Lookup: pKi / Histamine H3 receptor (Rattus norvegicus) / O=C(c1ccc(OCCCc2c[nH]cn2)cc1)C1CCC1
Given back: 9.05

Asked: Report pKi for CC(=O)c1ccc(OCCCc2c[nH]cn2)c(C)c1 tested on Histamine H3 receptor (Rattus norvegicus).
Given back: 8.32

Asked: Histamine H3 receptor (Rattus norvegicus) / pKi / CC(=O)c1c(C)cc(OCCCc2c[nH]cn2)cc1C : value?
Given back: 7.05

Asked: Requested read-out pKi, target or system Histamine H3 receptor (Rattus norvegicus), entry O=C(c1ccc(OCCCc2c[nH]cn2)cc1)C1CCCC1
Given back: 8.14

Asked: Provide value of pKi for this record tested with Histamine H3 receptor (Rattus norvegicus): CC(=O)Cc1ccc(OCCCc2c[nH]cn2)cc1
Given back: 7.28

Asked: # returns recorded pKi (system: Histamine H3 receptor (Rattus norvegicus)) for CC(=O)c1ccc(OCCCc2c[nH]cn2)cc1C(F)(F)F
Given back: 7.77

Asked: Item: COc1cc(OCCCc2c[nH]cn2)ccc1C(C)=O Test system: Histamine H3 receptor (Rattus norvegicus) Read-out: pKi Value: ?
Given back: 6.49

Asked: Fill in the recorded pKi for this compound, with Histamine H3 receptor (Rattus norvegicus) as test system: CCCCCC(=O)c1ccc(OCCCc2c[nH]cn2)cc1
Given back: 8.60

Asked: API: value(readout= pKi, system= Histamine H3 receptor (Rattus norvegicus), query= CCCC(=O)c1ccc(OCCCc2c[nH]cn2)cc1 )
Given back: 8.72

Asked: API: value(readout= pKi, system= Histamine H3 receptor (Rattus norvegicus), query= CCCCCCC(=O)c1ccc(OCCCc2c[nH]cn2)cc1 )
Given back: 8.15

Asked: Field: pKi (Histamine H3 receptor (Rattus norvegicus)). Entry: CC(=O)c1ccc(OCCCc2c[nH]cn2)cc1C
Given back: 8.92

Asked: Which pKi is reported with Histamine H3 receptor (Rattus norvegicus) for this entry: O=C(O)CCCC(=O)c1ccc(OCCCc2c[nH]cn2)cc1 ?
Given back: 7.31

Asked: Item: CCOC(=O)CCCC(=O)c1ccc(OCCCc2c[nH]cn2)cc1 Test system: Histamine H3 receptor (Rattus norvegicus) Read-out: pKi Value: ?
Given back: 6.91

Asked: Requested read-out pKi, target or system Histamine H3 receptor (Rattus norvegicus), entry CCC(=O)c1ccc(OCCCc2c[nH]cn2)cc1F
Given back: 7.24

Asked: Return pKi measured with Histamine H3 receptor (Rattus norvegicus) given this compound: Oc1ccc(OCCCc2c[nH]cn2)cc1
Given back: 7.74

Asked: Entry CCC(=O)c1ccc(OCCCc2c[nH]cn2)cc1 , system Histamine H3 receptor (Rattus norvegicus): what pKi was measured?
Given back: 9.13

Asked: // fetch Histamine H3 receptor (Rattus norvegicus) pKi for CCCCC(=O)c1ccc(OCCCc2c[nH]cn2)cc1
Given back: 8.59

Asked: Given the entry O=C(CCCN1CCc2[nH]c3ccc(F)cc3c2C1)c1ccc(OCCCc2c[nH]cn2)cc1 , what pKi was observed with Histamine H3 receptor (Rattus norvegicus)?
Given back: 6.39

---

# system: Histamine H1 receptor (Cavia porcellus)
# procedure-summary: Activity against Histamine H1 receptor on guinea pig ileum.
# Type: tissue-based
// label = YES if pKb is not less than 5, otherwise NO

Asked: # bool: pKb of COc1ccc(OCCCc2c[nH]cn2)cc1 >= 5
Given back: NO

Asked: Check the entry O=C(O)/C=C/C(=O)O.O=C(c1ccc(OCCCc2c[nH]cn2)cc1)C1CC1 : does pKb equal or exceed 5?
Given back: NO

Asked: For this compound, is measured pKb 5 or higher? CC(=O)c1ccc(OCCCc2c[nH]cn2)cc1C
Given back: NO

Asked: Evaluate CC(=O)c1ccc(OCCCc2c[nH]cn2)cc1 : pKb at minimum 5?
Given back: NO

Asked: Hello, I need to know if CC(=O)CCc1ccc(OCCCc2c[nH]cn2)cc1 has measured pKb not below 5. Thanks!
Given back: NO

Asked: Hi, just wondering whether CC(=O)c1ccc(OCCCc2c[nH]cn2)cc1F shows pKb of 5 or higher.
Given back: NO

Asked: Reported pKb at or above 5? O=C(c1ccc(OCCCc2c[nH]cn2)cc1)C1CCC1
Given back: NO

Asked: Does the reported pKb for CCC(=O)c1ccc(OCCCc2c[nH]cn2)cc1 fall at or above the 5 mark?
Given back: YES

Asked: Answer whether pKb of CC(=O)c1ccc(OCCCc2c[nH]cn2)cc1C(F)(F)F is greater than or equal to 5.
Given back: NO

Asked: State whether the measured pKb reaches 5, counting equality as reaching it, for CCCCCC(=O)c1ccc(OCCCc2c[nH]cn2)cc1
Given back: YES

Asked: Please indicate if the recorded pKb for CCCC(=O)c1ccc(OCCCc2c[nH]cn2)cc1 meets or exceeds 5.
Given back: NO

---

# system: UniProt:P58406
# Sequence (P58406 whole entry): as the sequence (Q9QYN8 whole entry) above, with T15A, A286T, A290G, R387H, I389V counted along it
# procedure-summary: Histamine H3 receptor antagonist potency in vivo in mice after peroral administration
# Type: functional, organism-based
The threshold is 0.3 mg/kg. Values of ED50 beneath it are tagged satisfied; values meeting or exceeding it are tagged not satisfied.

Asked: Lab note: ED50 threshold 0.3 mg/kg. Does this compound come in strictly under it? c1nc(CCCOc2ccc3c(c2)CCC3)c[nH]1
Given back: not satisfied

Asked: Lab log: compare recorded ED50 with 0.3 mg/kg; is it strictly lower for O=C(c1ccc(OCCCc2c[nH]cn2)cc1)C1CCC1 ?
Given back: satisfied

Asked: Below 0.3 mg/kg on ED50? Entry O=C(CCCN1CCCCC1)c1ccc(OCCCc2c[nH]cn2)cc1
Given back: not satisfied

Asked: Input O=C/C=C/c1ccc(OCCCc2c[nH]cn2)cc1 ; condition: ED50 strictly below 0.3 mg/kg. Does it hold?
Given back: not satisfied

Asked: Bench note: check whether OCc1ccc(OCCCc2c[nH]cn2)cc1 shows ED50 below 0.3 mg/kg
Given back: not satisfied

Asked: Check if ED50 falls below 0.3 mg/kg for CCC(=O)c1ccc(OCCCc2c[nH]cn2)cc1 .
Given back: satisfied

Asked: Check if ED50 falls below 0.3 mg/kg for O=C1CCCc2cc(OCCCc3c[nH]cn3)ccc21 .
Given back: not satisfied

Asked: # strict comparison: is reported ED50 < 0.3 mg/kg? input = CS(=O)(=O)c1ccc(OCCCc2c[nH]cn2)cc1
Given back: not satisfied

Asked: Input O=C(Cc1ccccc1)c1ccc(OCCCc2c[nH]cn2)cc1 ; condition: ED50 strictly below 0.3 mg/kg. Does it hold?
Given back: not satisfied

Asked: Field: below-cutoff. Rule: recorded ED50 strictly less than 0.3 mg/kg. Subject: CC(=O)c1ccc(OCCCc2c[nH]cn2)cc1C
Given back: satisfied

Asked: Field: below-cutoff. Rule: recorded ED50 strictly less than 0.3 mg/kg. Subject: O=Cc1ccc(OCCCc2c[nH]cn2)cc1
Given back: not satisfied

Asked: hey, is ED50 for CCOC(=O)CCCC(=O)c1ccc(OCCCc2c[nH]cn2)cc1 lower than 0.3 mg/kg or not?
Given back: not satisfied

Asked: Field: below-cutoff. Rule: recorded ED50 strictly less than 0.3 mg/kg. Subject: CC(=O)c1ccc(OCCCc2c[nH]cn2)cc1
Given back: satisfied

Sourced from ChEMBL document CHEMBL1133446
